assay: cell viability in Huh7 cells, primary screen, cytotoxicity control for HCV replication inhibitor project, CellTiter-Glo luminescence, basal, 48 h (AID 1143); details: Huh7 HCV replicon, higher = more signal, called active from +8 up or from −8 down;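 further: Huh7 hepatoma cells carrying a hepatitis C replication reporter with no stimulus; test concentration not given here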
Give measured z-score for each item. Keep answers brief.
One number for each entry.

A selection of reference data follows.
CCN1C(=O)[C@H]2[C@H]3[C@H](O)[C@H](O)CC(=NO[C@@H]4O[C@H](CO)[C@@H](O)[C@H](O)[C@H]4O)[C@H]3CC[C@H]2C1=O; -1.31
CC(C)=NOC(C)CN1CCCCc2nc(C)c(C)cc21 (centres undefined); 0.479
O=C1[C@H]2[C@H]3[C@H](O)[C@H](O)CC(=NO[C@@H]4O[C@H](CO)[C@@H](O)[C@H](O)[C@H]4O)[C@@H]3CC[C@H]2C(=O)N1C[C@@H]1CCCO1; -2.92
O=C1C2=CC[C@H]3C(=O)N(c4ccc(F)cc4F)C(=O)[C@H]3[C@H]2[C@H](O)[C@@H]2O[C@H]12; 0.612
C[C@@H]1CC[C@@H](C(=O)O)N[C@H]1c1cccc(N2CCOCC2)c1; -0.538
CCN1C(=O)[C@H]2[C@H]3[C@H](O)[C@H](O)CC(=NO[C@@H]4O[C@H](COC(C)=O)[C@@H](OC(C)=O)[C@H](OC(C)=O)[C@H]4OC(C)=O)[C@@H]3CC[C@H]2C1=O; 0.772
COC(=O)CC=C[C@@H](C)[C@@H](C=NOC[C@@H](O)[C@H]1O[C@@H]2OC(C)(C)O[C@@H]2[C@H]1O)OC; 0.559
C[C@H]1CC[C@@H](C(=O)O)N[C@@H]1c1ccc(C#Cc2ccccc2)cc1; -7

Give z-score for all compounds that follow.
1. CCOC(=O)[C@H](CC(C)C)NC(=O)CCC1CC(OC(=O)NCCc2ccc(F)cc2)CC2(CCCC(COC(=O)NCCOC)O2)O1 (some centres undefined)
2. CCN1C(=O)[C@H]2[C@H]3[C@H](O)[C@H](O)CC(=NOC(C)CN4CCCc5nc(C)c(C)cc54)[C@@H]3CC[C@H]2C1=O (some centres undefined)
3. COC(=O)[C@H](C)NC(=O)CCC1CC(OC(=O)NCc2cccc3ccccc23)CC2(CCCC(COC(=O)NCc3ccccc3)O2)O1 (some centres undefined)
4. COC(=O)[C@H](C)NC(=O)CCC1CC(OC(=O)NCc2ccc3c(c2)OCO3)CC2(CCCC(COC(=O)NCCC(C)C)O2)O1 (some centres undefined)
5. CC(CCC(=O)OC[C@H]1O[C@H](C#Cc2ccccc2)C=C[C@@H]1Oc1ccc(C)cc1)=NOC[C@@H](C)[C@H](OCc1ccccc1)C(C)C
6. CCN1C(=O)[C@H]2[C@H]3[C@H](O)[C@H](O)CC(=NOC[C@@H](O)COCc4ccco4)[C@H]3CC[C@H]2C1=O
7. O=C1[C@H]2CCn3c(=O)n(-c4ccccc4)c(=O)n3[C@H]2[C@H](O)[C@@H]2O[C@H]12
8. CC(=O)OC[C@H]1O[C@@H](ON=C(C)CCN2CCCCc3nc(C)c(C)cc32)[C@H](OC(C)=O)[C@@H](OC(C)=O)[C@@H]1OC(C)=O

1. -0.127
2. 0.433
3. -1.12
4. -2.02
5. -0.276
6. 0.337
7. 0.332
8. -2.39

Give z-score for all compounds that follow.
1. CCOC(=O)[C@H](CC(C)C)NC(=O)CCC1CC(OC(=O)NCc2ccc3c(c2)OCO3)CC2(CCCC(COC(=O)NCCOc3ccccc3)O2)O1 (some centres undefined)
2. O=C(NN=C1C[C@@H](O)[C@@H](O)[C@@H]2[C@@H]3C(=O)N(c4ccc(F)cc4F)C(=O)[C@@H]3CC[C@H]12)OCc1ccccc1
3. CO[C@@H](C1CCCCC1)[C@@H](C)[C@H](OCc1cccc(Br)c1)[C@@H](C)CO
4. CCOC(=O)NN=C1C[C@@H](O)[C@@H](O)[C@@H]2[C@@H]3C(=O)N(CC)C(=O)[C@@H]3CC[C@H]12

1. -0.705
2. -0.845
3. -2.1
4. 0.383

Give z-score for all compounds that follow.
1. CO[C@H]1C[C@@H]2C[C@H](O)CC(CC(=O)O[C@@H](C=CCC(C)C)C[C@@H]3CC[C@H](C)[C@@H](C1)O3)O2
2. CON=C[C@@H](OC)[C@H](C)C=CCC(=O)OC
3. CCOC(=O)[C@H](CC(C)C)NC(=O)CCC1CC(OC(=O)NCc2ccc3c(c2)OCO3)CC2(CCCC(COC(=O)NCCC(C)C)O2)O1 (some centres undefined)
4. CCOC(=O)[C@H](CC(C)C)NC(=O)CCC1CC(OC(=O)NCc2ccc3c(c2)OCO3)CC2(CCCC(COC(=O)NCCc3ccc(Cl)cc3)O2)O1 (some centres undefined)
5. CO[C@H]1COC(=O)[C@H](C)COC(=O)[C@H](C)NC(=O)CC=C[C@H]1C
6. C#CCCCON=C1C[C@@H](O)[C@@H](O)[C@@H]2[C@@H]3C(=O)N(C4CCCCC4)C(=O)[C@@H]3CC[C@@H]12
7. COCC#Cc1ccc([C@@H]2N[C@H](C(=O)O)CC[C@H]2C)cc1
8. CO[C@H]1COC(=O)[C@H](C)COC(=O)[C@@H](OCc2ccccc2)C=C[C@@H]1C

1: -0.454; 2: -0.569; 3: -0.172; 4: -0.197; 5: -1.34; 6: 0.0192; 7: -1.23; 8: -0.108

Look up z-score: CCN1C(=O)[C@H]2[C@H]3[C@H](O)[C@H](O)CC(=NOC[C@@H](O)[C@H]4O[C@@H]5OC(C)(C)O[C@@H]5[C@H]4O)[C@@H]3CC[C@H]2C1=O
0.297

FYI, the data here is from PubChem BioAssay.
